- assay overview: Plasma stability, rat plasma
- Type: in vitro ADME
- assay conditions: 37° C., remaining parent compound, read-out: Plasma stability (% recovery after 6 h), Rat
measured quantity: recovery at 6 h, 50 μM (%)
Enter your answer as a number in %; do not include the unit.

{"compound": "CNCCNS(=O)(=O)c1ccc(NC2CCCCC2)c(NCc2ccccc2)c1.Cl [Compound 37, Hydrochloride]", "recovery at 6 h, 50 μM (%)": 65.8}
{"compound": "Cl.O=S(=O)(NCCN1CCNCC1)c1ccc(NC2CCCCC2)c(NCc2ccccc2)c1 [Compound 39, Hydrochloride]", "recovery at 6 h, 50 μM (%)": 85.8}
{"compound": "O=S(=O)(NCCN1CCOCC1)c1ccc(NC2CCCCC2)c(NCc2ccccc2)c1", "recovery at 6 h, 50 μM (%)": 100}

In the following, a different compound is considered.
Q: Any idea what its recovery at 6 h, 50 μM is? The compound is Cl.NCCNS(=O)(=O)c1ccc(NC2CCCCC2)c(NCc2ccccc2)c1 [Compound 38, Hydrochloride]
Result: 100
